Where do the numbers come from? From the DeepSol protein solubility set.

assay: soluble on expression in E. coli; label from the status in PepcDB or PDB records
Readout name: soluble on expression in E. coli

item_sequence=MSVTFPSSGCPSFFNIFYEEGIVMKLTIYYDGQFWVGVVEVVDNGKLRAFRHLFGKEPRDSEVLEFVHNQLLNMMAQAEQEGVRLQGRRQKKINPKRLQRQVSKELKNAGVTSKAQEAIKLELEARKQKKKQIMKEQREHVKEQRYMLKKQKAKKKHRGKLEHHHHHH observed_measurement=soluble
item_sequence=MSLRPATDSPPLCAPPGAEVRAPSFVMPAGACDTHAHVISGDLERYPLVPDRSYTPPPAPEALYLEVLRAMGMQRGVLVQPSVYGTDNRYMLEVLQRHQDQLRGVAVVDEHVGDDELAHMHALGVRGVRINVLFRGGVNLDLMEHLAHRIADLGWHMQFLIDVRLLSEIEARMAKLPCAVVIDHFGHFPAHLGIKEAGFELLLRNVAEHGWWVKLSGAYRLSDQRPDYADTDALAHALLAVAPERMVWGSDWPHVALESTPDTSSLLDRLLSWAPSERQRQSILVDNPGALYDFKEGHHHHHH observed_measurement=soluble
